B1: glmS ribozyme (parent)
chain: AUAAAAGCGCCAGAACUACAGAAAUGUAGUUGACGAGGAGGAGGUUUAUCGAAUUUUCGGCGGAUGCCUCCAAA

# Variants of: B1
# Assay Protocol: self-cleavage kobs at 10000 uM GlcN6P; higher = faster cleavage; RNA array
# Condition Parameters: with glucosamine-6-phosphate
This sample holds only a part of the variants without activity.
// self-cleavage kobs at 10000 uM GlcN6P lookup, one value per entry
Recorded Metric: self-cleavage kobs at 10000 uM GlcN6P (s⁻¹)

1. A12U G60A ... 7.02e-05
2. G32U U56A ... 0.0011
3. G43C C67G ... 0.000541
4. G13A C16G ... 0.000178
5. G29U A53C ... 0.000874
6. A12C U54C ... 0.0203
7. U31C U49G ... 6.33e-05
8. C16U A33U C50G A64U U69A ... 0.000172
9. G13A C16U ... 0.000577
10. G40A U47A ... 0.00398
11. G43A C68U ... 0.041
